Source listed as ChEMBL document CHEMBL3885881.

Species: Rattus norvegicus
Assay: DrugMatrix - Regimen: Daily Repeat
Type: toxicity, organism-based, Sprague-Dawley
Parameters: regimen Daily Repeat, gender Male, age 6-8 weeks
Conditions: in vivo, po, 0 mg/kg, 120 h, tissue Blood, route oral GAVAGE, dose level Control, time 5 day, […]
I would appreciate it if you labelled entries rule met when HEMATOCRIT is 40% or higher, otherwise rule not met.

compound: CC(C)n1c(/C=C/C(O)CC(O)CC(=O)O)c(-c2ccc(F)cc2)c2ccccc21 (stereo not given)
qualitativeLabel: rule not met
//
compound: CC(=O)[C@H]1CC[C@H]2[C@@H]3CCC4=CC(=O)CC[C@]4(C)[C@H]3CC[C@]12C
qualitativeLabel: rule not met
//
compound: COC1=CC(=O)C[C@@H](C)[C@]12Oc1c(Cl)c(OC)cc(OC)c1C2=O
qualitativeLabel: rule not met

Prompt line: Is the recorded value of HEMATOCRIT equal to or greater than 40% for this compound? "COc1ccc2c(c1)c(CC(=O)OCC(=O)O)c(C)n2C(=O)c1ccc(Cl)cc1"
Response line: rule not met

Prompt line: Exam item: decide whether the reported HEMATOCRIT for "O=[N+]([O-])c1cc([As](=O)(O)O)ccc1O" is at least 40%.
Response line: rule met

====

Species on record: Rattus norvegicus
Test: DrugMatrix - Regimen: Daily Repeat
Assay type: toxicity, organism-based, Sprague-Dawley
Parameters: regimen Daily Repeat, gender Male, age 6-8 weeks
Details: in vivo, po, 10 mg/kg, 72 h, tissue Blood, route oral GAVAGE, dose level Low, time 3 day, vehicle .5 % CMC
parameter: ABSOLUTE SEGMENTED NEUTROPHIL (CELLS/uL)
Use CELLS/uL as the unit, but write only the number.

Solved entries:
molecule: COc1c(C)c2c(c(O)c1C/C=C(\C)CCC(=O)OCCN1CCOCC1)C(=O)OC2 [MYCOPHENOLATE MOFETIL]
reading: 870.33

molecule: CC(=O)O[C@]1(C(C)=O)CC[C@H]2[C@@H]3C=C(Cl)C4=CC(=O)CC[C@]4(C)[C@H]3CC[C@@]21C [CHLORMADINONE ACETATE]
reading: 507

molecule: NS(=O)(=O)c1cc2c(cc1Cl)NCNS2(=O)=O [HYDROCHLOROTHIAZIDE]
reading: 3446

Okay, now this molecule:
Prompt line: Tell me ABSOLUTE SEGMENTED NEUTROPHIL reported for "O=C1CN=C(c2ccccc2)c2cc([N+](=O)[O-])ccc2N1"
Response line: 750

====

Species on record: Rattus norvegicus
Test: DrugMatrix - Regimen: Daily Repeat
Format: toxicity, organism-based, Sprague-Dawley
Parameters: regimen Daily Repeat, gender Male, age 6-8 weeks
Conditions: in vivo, po, 0 mg/kg, 120 h, tissue Blood, route oral GAVAGE, dose level Control, time 5 day, vehicle 100 % WATER
LEUKOCYTE COUNT for assorted molecules
Please reply with the bare figure in x10E3/uL and do not write the unit itself.

molecule: O=C1NC(=O)C(c2ccccc2)(c2ccccc2)N1 [PHENYTOIN]
uom: x10E3/uL
LEUKOCYTE COUNT: 15.87

Prompt line: Identify measured LEUKOCYTE COUNT associated with CN1CCN(C(=O)OC2c3nccnc3C(=O)N2c2ccc(Cl)cn2)CC1 (stereo unspecified) [ZOPICLONE]
Response line: 8.42

Prompt line: For the molecule NCC1(CC(=O)O)CCCCC1 [GABAPENTIN] , give its measured LEUKOCYTE COUNT value.
Response line: 12.05

====

CARBON DIOXIDE values for the molecules below.
Species on record: Rattus norvegicus
Test: DrugMatrix - Regimen: Daily Repeat
Format: toxicity, organism-based, Sprague-Dawley
Parameters: regimen Daily Repeat, gender Male, age 6-8 weeks
Conditions: in vivo, po, 0 mg/kg, 120 h, tissue Plasma, route oral GAVAGE, dose level Control, time 5 day, vehicle .5 % CMC
# output: bare number, implied unit mmol/L

Prompt line: Please give measured CARBON DIOXIDE of the following entry: "Brc1ccccc1"
Response line: 27.67

Prompt line: Please look at this molecule and report its CARBON DIOXIDE: "CN1CCC[C@@H]1CCO[C@](C)(c1ccccc1)c1ccc(Cl)cc1"
Response line: 28.33

Prompt line: For the molecule CC1(C)[C@H]2CC[C@]1(C)C(=O)C2 [(-)-CAMPHOR] , give its measured CARBON DIOXIDE value.
Response line: 27.5

====

Organism: Rattus norvegicus
Test: DrugMatrix - Regimen: Daily Repeat
Assay type: toxicity, organism-based, Sprague-Dawley
Design: regimen Daily Repeat, gender Male, age 6-8 weeks
Settings: in vivo, po, 0 mg/kg, 120 h, tissue Blood, route oral GAVAGE, dose level Control, time 5 day, vehicle 100 % WATER
parameter: ABSOLUTE MONOCYTE (CELLS/uL)
Give the value, in units of CELLS/uL, as a plain number.

# count of solved cases: 2
molecule: CNCCC=C1c2ccccc2CCc2ccccc21 [NORTRIPTYLINE]
ABSOLUTE MONOCYTE / CELLS/uL: 351
--
molecule: CC1COc2c(N3CCN(C)CC3)c(F)cc3c(=O)c(C(=O)O)cn1c23 (centres undefined) [OFLOXACIN]
ABSOLUTE MONOCYTE / CELLS/uL: 180.83

Prompt line: Identify ABSOLUTE MONOCYTE associated with the molecule Fc1ccc([C@@H]2CCNC[C@H]2COc2ccc3c(c2)OCO3)cc1 [PAROXETINE]
Response line: 58.33

Prompt line: Using known records, supply ABSOLUTE MONOCYTE for COc1cccc(C2(O)CCCCC2CN(C)C)c1 (centres undefined) [TRAMADOL]
Response line: 58.33

====

Species: Rattus norvegicus
Assay: DrugMatrix - Regimen: Daily Repeat
Assay type: toxicity, organism-based, Sprague-Dawley
Design: regimen Daily Repeat, gender Male, age 6-8 weeks
Conditions: in vivo, po, 1500 mg/kg, 120 h, tissue Plasma, route oral GAVAGE, dose level High, time 5 day, vehicle .5 % CMC
parameter: CREATININE

molecule: CCOC(=O)[C@H](CCc1ccccc1)N[C@@H](C)C(=O)N1[C@H](C(=O)O)C[C@@H]2CCC[C@@H]21
CREATININE: 0.26 mg/dL
//
molecule: COC(=O)c1ccc(O)cc1
CREATININE: 0.22 mg/dL
//
molecule: NS(=O)(=O)c1cc2c(cc1Cl)NCNS2(=O)=O [HYDROCHLOROTHIAZIDE]
CREATININE: 0.2 mg/dL

Now for a further molecule.
Prompt line: Hello, please tell me recorded CREATININE for this one: "O=C1CCc2cc(OCCCCc3nnnn3C3CCCCC3)ccc2N1"
Response line: 0.6 mg/dL

====

Species on record: Rattus norvegicus
Experiment: DrugMatrix - Regimen: Daily Repeat
Assay type: toxicity, organism-based, Sprague-Dawley
Set-up: regimen Daily Repeat, gender Male, age 6-8 weeks
Settings: in vivo, po, 10 mg/kg, 120 h, tissue Blood, route oral GAVAGE, dose level Low, time 5 day, vehicle .5 % CMC
parameter: PLATELET COUNT

Below: 3 compounds and their reported PLATELET COUNT.
compound: CC(=O)O[C@]1(C(C)=O)CC[C@H]2[C@@H]3C=C(Cl)C4=CC(=O)CC[C@]4(C)[C@H]3CC[C@@]21C [CHLORMADINONE ACETATE]
parameter: PLATELET COUNT
reading: 1116.33 x10E3/uL
//
compound: O=C1CN=C(c2ccccc2)c2cc([N+](=O)[O-])ccc2N1
parameter: PLATELET COUNT
reading: 1206.67 x10E3/uL
//
compound: NS(=O)(=O)c1cc2c(cc1Cl)NCNS2(=O)=O [HYDROCHLOROTHIAZIDE]
parameter: PLATELET COUNT
reading: 1189.67 x10E3/uL

Now look at this one.
Prompt line: Quick one: give measured PLATELET COUNT for COc1c(C)c2c(c(O)c1C/C=C(\C)CCC(=O)OCCN1CCOCC1)C(=O)OC2 [MYCOPHENOLATE MOFETIL]
Response line: 1214 x10E3/uL

====

Organism: Rattus norvegicus
Assay: DrugMatrix - Regimen: Daily Repeat
Type: toxicity, organism-based, Sprague-Dawley
Parameters: regimen Daily Repeat, gender Male, age 6-8 weeks
Details: in vivo, po, 0 mg/kg, 72 h, tissue Blood, route oral GAVAGE, dose level Control, time 3 day, vehicle .5 % CMC
# key: entry, value: NEUTROPHIL
Kindly answer with a numeric value in %, unit omitted.

Completed entries (count: 4):
compound: CC(/C=C1\SC(=S)N(CC(=O)O)C1=O)=C\c1ccccc1
uom: %
NEUTROPHIL: 8.83
--
compound: CCc1ccc(C(=O)C(C)CN2CCCCC2)cc1 (stereo not given) [EPERISONE]
uom: %
NEUTROPHIL: 7.17
--
compound: CN1C(C(=O)Nc2ccccn2)=C(O)c2ccccc2S1(=O)=O [PIROXICAM]
uom: %
NEUTROPHIL: 13
--
compound: CCOC(=O)OC(C)OC1=C(C(=O)Nc2ccccn2)N(C)S(=O)(=O)c2ccccc21 (stereo not given) [AMPIROXICAM]
uom: %
NEUTROPHIL: 12.83

The record that follows has no NEUTROPHIL shown yet.
Prompt line: Please supply the value of reported NEUTROPHIL for the item Cc1c(-c2ccccc2)oc2c(C(=O)OCCN3CCCCC3)cccc2c1=O [FLAVOXATE]
Response line: 12
